Tested on: MCF7
METHOD_DESCRIPTION: Cytotoxicity against human MCF7 cells after 48 hrs by MTT assay
Type: functional, cell-based
CONDITION: MCF7, 48 h
pIC50: −log10 of the molar value.
Output YES for pIC50 not less than 5; output NO otherwise.

COMPOUND | TEST_TARGET | CLASSIFICATION
CCc1n(Cc2c(-c3ccccc3)oc3ccccc23)cc[n+]1CC(=O)c1ccc2ccccc2c1 | MCF7 | YES
CCc1n(Cc2c(-c3ccccc3)oc3ccccc23)cc[n+]1Cc1ccccc1Br.[Br-] | MCF7 | YES
O=C(C[n+]1cn(Cc2c(-c3ccccc3)oc3ccccc23)c2ccccc21)c1ccc(F)cc1 | MCF7 | YES
O=C(C[n+]1cnn(Cc2c(-c3ccccc3)oc3ccccc23)c1)c1ccc2ccccc2c1 | MCF7 | YES
O=C(C[n+]1cn(Cc2c(-c3ccccc3)oc3ccccc23)c2ccccc21)c1ccc(Br)cc1 | MCF7 | YES
O=C(C[n+]1cnn(Cc2c(-c3ccccc3)oc3ccccc23)c1)c1ccc(O)cc1 | MCF7 | NO
O=C(C[n+]1cn(Cc2c(-c3ccccc3)oc3ccccc23)c2ccccc21)c1ccc(O)cc1 | MCF7 | NO
O=C(C[n+]1ccn(Cc2c(-c3ccccc3)oc3ccccc23)c1)c1ccc(O)cc1 | MCF7 | NO
CCc1nccn1Cc1c(-c2ccccc2)oc2ccccc12 | MCF7 | NO
O=C(c1ccccc1)C(c1ccccc1)[n+]1cnn(Cc2c(-c3ccccc3)oc3ccccc23)c1 (stereo unspecified) | MCF7 | NO
Brc1ccccc1C[n+]1ccn(Cc2c(-c3ccccc3)oc3ccccc23)c1 | MCF7 | YES
